- target_under_test: FGFR1 kinase domain (Homo sapiens, UniProt P11362)
- Sequence (P11362 478-767 limits assumed): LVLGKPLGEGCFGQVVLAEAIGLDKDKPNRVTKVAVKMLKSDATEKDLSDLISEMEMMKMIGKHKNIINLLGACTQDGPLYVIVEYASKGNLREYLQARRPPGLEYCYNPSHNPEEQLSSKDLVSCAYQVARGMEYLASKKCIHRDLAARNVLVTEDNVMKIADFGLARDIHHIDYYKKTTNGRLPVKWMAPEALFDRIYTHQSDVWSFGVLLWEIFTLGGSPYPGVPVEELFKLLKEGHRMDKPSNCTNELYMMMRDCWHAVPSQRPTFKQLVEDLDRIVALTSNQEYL
pIC50: −log10 of the molar value.
pIC50 values by entry

{"columns": ["structure_string", "pIC50"],
 "data": [
  ["COc1cc(OC)cc(-c2ccc3c(c2)sc2nc(CCC(=O)O)[nH]c(=O)c23)c1", 4.68],
  ["COc1cc(OC)cc(-c2ccc3c(c2)sc2nc(-c4ccc(OCC(=O)O)c(OC)c4)[nH]c(=O)c23)c1", 4.55]
]}
